assay target: T1, FPR2 (Homo sapiens, UniProt P25090)
T1 chain: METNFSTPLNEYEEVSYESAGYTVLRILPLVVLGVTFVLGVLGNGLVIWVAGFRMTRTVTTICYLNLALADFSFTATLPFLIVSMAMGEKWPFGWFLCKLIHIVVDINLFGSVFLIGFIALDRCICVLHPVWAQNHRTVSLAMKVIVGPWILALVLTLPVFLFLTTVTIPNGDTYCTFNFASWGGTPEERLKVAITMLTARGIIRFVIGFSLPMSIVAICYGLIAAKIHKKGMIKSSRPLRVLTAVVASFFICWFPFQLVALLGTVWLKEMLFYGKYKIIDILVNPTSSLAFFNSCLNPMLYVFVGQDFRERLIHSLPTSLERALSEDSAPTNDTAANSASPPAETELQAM
procedure details: Ca2+ flux in FPR-transfected HL60 cells, one-site binding model
Where no end group is shown, it is not given here. The star is where a group is joined. For = O=C*
experimental readout: pKd
Quick note: pKd values are minus log10 of concentrations in mol/L.

stdin: Data request, read-out pKd, for For-MEFVAKLFKFFKDLLGKFLGNN [PSMα3]
stdout: 7.92
